# System: Mus musculus
# protocol: Neurotoxicity in Swiss mouse assessed as inability of animal to maintain on rotarod at 100 mg, ip after 30 mins by rotarod test
# Format: toxicity, organism-based
# run_parameters: in vivo, 0.5 h
result_type: Activity (%)
Give bare numbers, in %.

Answered examples (3):
CCN(CCNc1ccc(C(=N)N)cc1)c1ccc(C(=N)N)cc1.Cl.Cl    75
CN(CCNc1ccc(C(=N)N)cc1)c1ccc(C(=N)N)cc1.Cl.Cl    75
CN(CCN(C)c1ccc(C(=N)N)cc1)c1ccc(C(=N)N)cc1    25

# input molecule: `N=C(N)c1ccc(NCCNc2ccc(C(=N)N)cc2)cc1` ; wanted: its Activity 25

====

# target_system: Glutamate NMDA receptor
# protocol: Displacement of [3H]TCP from NMDA receptor in rat cerebral cortex
result_type: IC50 (µM)
One number for each entry, in µM.

# input compound: `N=C(N)c1ccc(NCCNc2ccc(C(=N)N)cc2)cc1` ; wanted: its IC50 1.4
